Consider the following molecules; for each one, report its pEC50.
Biological target: full-length beta-catenin (Axin site) (Homo sapiens, UniProt P35222)
Construct: 15 nM full-length beta-catenin, 20 nM FITC labeled peptide in buffer
Sequence (P35222 1-781): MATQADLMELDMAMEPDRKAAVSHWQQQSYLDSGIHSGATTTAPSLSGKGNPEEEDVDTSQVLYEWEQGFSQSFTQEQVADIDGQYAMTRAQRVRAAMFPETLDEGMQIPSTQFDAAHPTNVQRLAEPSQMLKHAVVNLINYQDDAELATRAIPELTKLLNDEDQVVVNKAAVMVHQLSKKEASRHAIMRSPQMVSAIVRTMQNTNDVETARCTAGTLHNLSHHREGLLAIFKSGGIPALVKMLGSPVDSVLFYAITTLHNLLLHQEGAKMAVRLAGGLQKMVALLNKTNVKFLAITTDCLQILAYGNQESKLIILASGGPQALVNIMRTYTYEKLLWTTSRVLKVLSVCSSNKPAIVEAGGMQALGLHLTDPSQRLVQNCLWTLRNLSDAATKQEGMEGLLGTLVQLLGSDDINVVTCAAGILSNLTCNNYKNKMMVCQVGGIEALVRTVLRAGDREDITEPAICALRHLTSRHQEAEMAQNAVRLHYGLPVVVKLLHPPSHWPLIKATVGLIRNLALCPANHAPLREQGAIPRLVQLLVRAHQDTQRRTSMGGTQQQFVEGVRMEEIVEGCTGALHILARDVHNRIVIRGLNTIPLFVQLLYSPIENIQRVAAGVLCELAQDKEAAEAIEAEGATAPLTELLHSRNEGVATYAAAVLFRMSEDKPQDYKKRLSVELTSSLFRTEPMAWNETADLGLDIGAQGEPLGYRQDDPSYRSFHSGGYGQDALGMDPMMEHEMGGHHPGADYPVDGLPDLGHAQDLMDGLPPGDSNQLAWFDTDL
Test: Competition fluorescence polarization assay (Axin site probe)
Type: binding
Conditions: competition fluorescence polarization, Table 2; read-out: in vitro FP EC50
pEC50: −log10 of the molar value. Numbered stars: 1 amine (or outer) side, 2 acyl side, 3 side chain; on linkers, the order of the positions; unused ones are H or OH. Bridge positions count the residues as written; N and C are the ends. Square brackets hold non-standard residues; d marks the D form. Peptide text beside a SMILES is read from it. X11 = CN(CC=[*:3])C[C@](C)(N[*:1])C(=O)[*:2]; X5 = C[C@](CCCCCC=[*:3])(N[*:1])C(=O)[*:2]

List reported pEC50 for each of these molecules:
1. CC[C@H](C)[C@@H]1NC(=O)[C@H](Cc2c[nH]cn2)NC(=O)[C@H](C)NC(=O)[C@H](CC(=O)O)NC(=O)[C@H](CC(C)C)NC(=O)[C@H]([C@@H](C)CC)NC(=O)[C@](C)(NC(=O)[C@H](C)NC(C)=O)CCCCCC=CCN(C)C[C@@](C)(C(=O)N[C@@H](CCCNC(=N)N)C(=O)N[C@H](C(=O)N[C@@H](Cc2c[nH]c3ccccc23)C(N)=O)C(C)C)NC1=O [FP0495a, Ac-A-R7-I-L-D-A-H-I-MD-R-V-W-NH2] (Ac-A[X5]ILDAHI[X11]RVW-NH2; staple 2-9)
2. CC[C@H](C)[C@@H]1NC(=O)[C@H](Cc2ccccn2)NC(=O)[C@H](C)NC(=O)[C@H](CC(=O)O)NC(=O)[C@H](CC(C)C)NC(=O)[C@H]([C@@H](C)CC)NC(=O)[C@](C)(NC(=O)[C@H](C)NC(C)=O)CCCCCCC=CCOC(=O)N2CC[C@@](C(=O)N[C@@H](Cc3ccc(OC)cc3)C(=O)N[C@H](C(=O)N[C@@H](Cc3c[nH]c4ccccc34)C(N)=O)C(C)C)(C2)NC1=O (single isomer, unassigned) [FP0575c Isomer 1, Ac-A-R8-I-L-D-A-2pyr-I-MB-MeY-V-W-NH2]
3. CC[C@H](C)[C@@H]1NC(=O)[C@@]2(NC(=O)[C@H](C)NC(=O)[C@@H]3CCCN3C(C)=O)CCN(C2)C(=O)OCC=CCCCCCC[C@@](C)(C(=O)N[C@@H](CCCNC(=N)N)C(=O)N[C@H](C(=O)N[C@@H](Cc2c[nH]c3ccccc23)C(N)=O)C(C)C)NC(=O)[C@H](C(C)C)NC(=O)[C@H](Cc2c[nH]cn2)NC(=O)[C@H](C)NC(=O)[C@H](CC(=O)O)NC(=O)[C@H](CC(C)C)NC1=O [FP0005c, Ac-P-A-MC-I-L-D-A-H-V-S8-R-V-W-NH2]

1. 5.30 to 6.30
2. < 5.30
3. > 7.00

List reported pEC50 for each of these molecules:
1. CC[C@H](C)[C@@H]1NC(=O)[C@](C)(NC(=O)[C@H](CCC(N)=O)NC(=O)[C@@H]2CCCN2C(C)=O)CCC=CCOC(=O)N2CC[C@](C(=O)N[C@@H](Cc3c[nH]cn3)C(=O)N[C@H](C(=O)N[C@@H](CCCNC(=N)N)C(=O)N[C@@H](CCCNC(=N)N)C(=O)N[C@H](C(=O)N[C@@H](Cc3c[nH]c4ccccc34)C(=O)N[C@@H](CCCNC(=N)N)C(N)=O)C(C)C)C(C)C)(C2)NC(=O)[C@H](CC(=O)O)NC(=O)[C@H](CC(C)C)NC1=O (single isomer, unassigned) [FP0765c, Ac-P-Q-R4-I-L-D-MC-H-V-R-R-V-W-R-NH2]
2. CC[C@H](C)[C@@H]1NC(=O)[C@H](Cc2ccccn2)NC(=O)[C@H](C)NC(=O)[C@H](CC(=O)O)NC(=O)[C@H](CC(C)C)NC(=O)[C@H]([C@@H](C)CC)NC(=O)[C@](C)(NC(=O)[C@H](C)NC(C)=O)CCCCCCC=CCOC(=O)N2CC[C@@](C(=O)N[C@@H](CO)C(=O)N[C@H](C(=O)N[C@@H](Cc3c[nH]c4ccccc34)C(N)=O)C(C)C)(C2)NC1=O (single isomer, unassigned) [FP0560c Isomer 1, Ac-A-R8-I-L-D-A-2pyr-I-MB-S-V-W-NH2]

> 7.00
< 5.30
